From: patent US11254668B2

TARGET_SYSTEM: TYK2 (Homo sapiens (Human), UniProt P29597)
Sequence (P29597 897-1176): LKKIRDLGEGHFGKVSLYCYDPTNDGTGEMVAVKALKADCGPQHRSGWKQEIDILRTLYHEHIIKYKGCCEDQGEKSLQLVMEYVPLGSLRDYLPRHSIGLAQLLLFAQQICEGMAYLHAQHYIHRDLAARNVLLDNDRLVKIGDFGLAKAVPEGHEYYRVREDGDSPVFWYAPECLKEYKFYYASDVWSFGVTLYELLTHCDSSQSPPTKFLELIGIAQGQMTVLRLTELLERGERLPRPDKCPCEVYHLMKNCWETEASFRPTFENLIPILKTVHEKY
ASSAY_OVERVIEW: JAK Caliper Enzyme Assay at 1 mM ATP, TYK2
Type: biochemical
METRIC: IC50 (µM)

STRUCTURE_SMILES	TARGET_SYSTEM	IC50 (µM)
CS(=O)(=O)N1CC(CC#N)(n2ccc(-c3nc(-c4cn[nH]c4)cc4ncccc34)n2)C1	TYK2 (Homo sapiens (Human), UniProt P29597)	0.046

1. Cc1n[nH]cc1-c1cc2ncccc2c(-c2ccn(C3(CC#N)CN(S(C)(=O)=O)C3)n2)n1
2. N#CC[C@]1(n2ncc(-c3cc(-c4c[nH]nc4CO)cc4ncccc34)n2)C[C@@H](C#N)C1
3. CO[C@H]1C[C@](CC#N)(n2cc(-c3cc(-c4c[nH]nc4N)cc4ncccc34)cn2)C1
Please list these in order of increasing IC50. Thank you! Respond with an ordered listing of the labels, as requested.
2, 1, 3
(2: 0.017 µM, 1: 0.06 µM, 3: 0.343 µM)

* * *

TARGET_SYSTEM: JAK2 (Homo sapiens (Human))
Sequence (O60674 849-1124): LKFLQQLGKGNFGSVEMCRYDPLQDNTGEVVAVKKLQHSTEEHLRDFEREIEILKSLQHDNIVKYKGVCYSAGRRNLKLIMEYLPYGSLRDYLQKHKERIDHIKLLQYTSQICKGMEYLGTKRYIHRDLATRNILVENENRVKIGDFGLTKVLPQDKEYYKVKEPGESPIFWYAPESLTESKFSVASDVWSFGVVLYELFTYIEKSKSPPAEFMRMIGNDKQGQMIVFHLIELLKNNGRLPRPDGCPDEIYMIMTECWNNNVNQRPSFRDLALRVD
ASSAY_OVERVIEW: JAK Caliper Enzyme Assay at 1 mM ATP, JAK2
Type: biochemical
pIC50: −log10 of the molar value.
METRIC: pIC50

Worked set:
STRUCTURE_SMILES	TARGET_SYSTEM	pIC50
CO[C@H]1C[C@](CC#N)(n2ncc(-c3cc(-c4cc[nH]n4)cc4ncccc34)n2)C1	JAK2 (Homo sapiens (Human))	5.98
N#CC[C@]1(n2ncc(-c3cc(-c4ccc(N)nc4)cc4ncccc34)n2)C[C@H](C#N)C1	JAK2 (Homo sapiens (Human))	6.03
N#CCC1(n2ccc(-c3nc(-c4cn[nH]n4)cc4ncccc34)n2)CN(CC(F)(F)F)C1	JAK2 (Homo sapiens (Human))	5.48
CCN1CC(CC#N)(n2ccc(-c3nc(C4=CCOCC4)cc4ncccc34)n2)C1	JAK2 (Homo sapiens (Human))	5.02
CS(=O)(=O)N1CC(CC#N)(n2ccc(-c3nc(-c4ccc5nccn5c4)cc4ncccc34)n2)C1	JAK2 (Homo sapiens (Human))	6.26

P. CS(=O)(=O)N1CC(CC#N)(n2ccc(-c3nc(-c4cnn(C5COC5)c4)cc4ncccc34)n2)C1
Q. N#CC[C@]1(n2ccc(-c3nc(-c4cnnc(N)c4)cc4ncccc34)n2)C[C@@H](C#N)C1
When P and Q are compared, which has the higher number for pIC50? State your choice using its label.
P

* * *

TARGET_SYSTEM: UniProtKB P29597
ASSAY_OVERVIEW: JAK Caliper Enzyme Assay at 1 mM ATP, TYK2
Assay type: biochemical
METRIC: IC50 (nM)

COMPOUND	VALUE_UNIT	OBSERVED_VALUE
CS(=O)(=O)Nc1ccc(-c2cc3ncccc3c(-c3ccn(C4(CC#N)CN(S(C)(=O)=O)C4)n3)n2)cn1	nM	17

a. Cn1ccc(-c2cc3ncccc3c(-c3ccn(C4(CC#N)CN(CC(F)(F)F)C4)n3)n2)n1
b. C[C@]1(C#N)C[C@](CC#N)(n2ncc(-c3cc(-c4c[nH]nc4N)cc4ncccc34)n2)C1
Which gives the smaller IC50 number: a or b ? State your choice using its label.
a
(a: 156 nM, b: 844 nM)

1. CCCS(=O)(=O)N1CC(CC#N)(n2ccc(-c3nc(-c4cnn(C)c4)cc4ncccc34)n2)C1
2. CS(=O)(=O)N1CC(CC#N)(n2ccc(-c3nc(-c4cccc(O)n4)cc4ncccc34)n2)C1
3. CCn1cc(-c2cc3ncccc3c(-c3ccn(C4(CC#N)CC(C#N)C4)n3)n2)cn1 (centres unmarked)
4. Cc1n[nH]cc1-c1cc2ncccc2c(-c2ccn([C@]3(CC#N)C[C@@H](C#N)C3)n2)n1
5. CS(=O)(=O)N1CC(CC#N)(n2ccc(-c3nc(-c4cnc5[nH]c(=O)[nH]c5c4)cc4ncccc34)n2)C1
Please list these in order of increasing IC50. Thank you! Respond with an ordered listing of the labels, as requested.
3, 5, 2, 4, 1
(3: 12 nM, 5: 22 nM, 2: 42 nM, 4: 89 nM, 1: 138 nM)

1. N#CC[C@]1(n2ncc(-c3cc(-c4ccc(N)nc4)cc4ncccc34)n2)C[C@@H](C#N)C1
2. CS(=O)(=O)N1CC(CC#N)(n2ccc(-c3nc(-c4cncnc4)cc4ncccc34)n2)C1
3. Cn1cc(-c2cc3ncccc3c(-c3cn(C4(CC#N)CN(CC(F)(F)F)C4)nn3)n2)cn1
4. N#CC[C@]1(n2ncc(-c3cc(-c4cn[nH]c4N)cc4ncccc34)n2)C[C@@H](C#N)C1
Please list these compounds in decreasing order of IC50. Respond with an ordered listing of the labels, as requested.
2, 1, 3, 4

A. CO[C@H]1C[C@](CC#N)(n2ncc(-c3cc(-c4cc[nH]n4)cc4ncccc34)n2)C1
B. N#CC[C@]1(n2ccc(-c3nc(-c4ccc(N)cn4)cc4ncccc34)n2)C[C@@H](C#N)C1
C. Cn1cc(-c2cc3ncccc3c(-c3ccn(C4(CC#N)CN(S(C)(=O)=O)C4)n3)n2)ccc1=O
D. Cc1cc(-c2cc3ncccc3c(-c3ccn([C@]4(CC#N)C[C@H](C#N)C4)n3)n2)nn1C
Please list these compounds in decreasing order of IC50. Respond with an ordered listing of the labels, as requested.
C, B, A, D
(C: 96 nM, B: 55 nM, A: 35 nM, D: 16 nM)

* * *

TARGET_SYSTEM: UniProt O60674
ASSAY_OVERVIEW: JAK Caliper Enzyme Assay at 1 mM ATP, JAK2
Assay type: biochemical
pIC50: −log10 of the molar value.
METRIC: pIC50

Worked set:
MOLECULE	pIC50
N#CCC1(n2ncc(-c3cc(-c4cc[nH]n4)cc4ncccc34)n2)CN(S(=O)(=O)C2CC2)C1	6.60
CNc1cc(-c2cc3ncccc3c(-c3ccn([C@]4(CC#N)C[C@@H](C#N)C4)n3)n2)nn1C	5.46
CCCS(=O)(=O)N1CC(CC#N)(n2ccc(-c3nc(-c4cnn(C)c4)cc4ncccc34)n2)C1	6.05
CS(=O)(=O)N1CC(CC#N)(n2ccc(-c3cc(-c4ccc(=O)[nH]c4)cc4ncccc34)n2)C1	5.27

1. Cn1cc(-c2cc(-c3cnn(C4(CC#N)CC(C#N)C4)n3)c3cccnc3c2)cn1 (centres unmarked)
2. CS(=O)(=O)N1CC(CC#N)(n2ccc(-c3nc(-c4cncc(N)c4)cc4ncccc34)n2)C1
When 1 and 2 are compared, which has the higher number for pIC50? State your choice using its label.
1

* * *

TARGET_SYSTEM: JAK2 (Homo sapiens (Human))
ASSAY_OVERVIEW: JAK Caliper Enzyme Assay at 1 mM ATP, JAK2
Format: biochemical
METRIC: IC50 (nM)

Worked set:
COMPOUND	IC50 / nM
CO[C@H]1C[C@](CC#N)(n2cc(-c3nc(-c4cc(CO)n[nH]4)cc4ncccc34)cn2)C1 [Example 13]	82
Cn1cc(-c2cc(-c3cnn([C@]4(CC#N)C[C@@H](C#N)C4)n3)c3cccnc3c2)nn1 [Example 339]	146
CO[C@H]1C[C@@](CC#N)(n2ccc(-c3nc(-c4cc(N)[nH]n4)cc4ncccc34)n2)C1 [Example 52]	235
CS(=O)(=O)N1CC(CC#N)(n2ccc(-c3nc(-c4c[nH]nc4N)cc4ncccc34)n2)C1 [Example 93]	46
Cc1cc(-c2nc(-c3cc[nH]n3)cc3ncccc23)nn1[C@]1(CC#N)C[C@H](C#N)C1 [Example 268]	33
C[C@]1(C#N)C[C@](CC#N)(n2ncc(-c3cc(-c4c[nH]nc4N)cc4ncccc34)n2)C1 [Example 321]	7690
N#CC[C@]1(n2ccc(-c3nc(-c4cccc(O)n4)cc4ncccc34)n2)C[C@@H](C#N)C1 [Example 181]	123
CCN1CC(CC#N)(n2ccc(-c3nc(-c4ccc(O)nc4)cc4ncccc34)n2)C1 [Example 184]	4030
Cc1ccc(-c2cc(-c3cnn(C4(CC#N)CN(S(C)(=O)=O)C4)n3)c3cccnc3c2)cn1 [Example 355]	1580
N#CC[C@]1(n2ncc(-c3cc(-c4cccc(N)n4)cc4ncccc34)n2)C[C@@H](C#N)C1 [Example 358]	92

1. Cc1cc(-c2cc3ncccc3c(-c3ccn([C@]4(CC#N)C[C@@H](C#N)C4)n3)n2)cc(N)n1 [Example 220]
2. Cn1cc(-c2cc(-c3cnn(C4(CC#N)CN(CC#N)C4)c3)c3cccnc3c2)cn1 [Example 292]
When 1 and 2 are compared, which has the higher number for IC50? State your choice using its label.
1
(1: 768 nM, 2: 71 nM)

* * *

TARGET_SYSTEM: JAK2 (Homo sapiens (Human))
ASSAY_OVERVIEW: JAK Caliper Enzyme Assay at 1 mM ATP, JAK2
Type: biochemical
pIC50: −log10 of the molar value.
METRIC: pIC50

Worked set:
MOLECULE	TARGET_SYSTEM	pIC50
CCN1CC(CC#N)(n2ccc(-c3nc(N4CCCC4)cc4ncccc34)n2)C1 [Example 265]	JAK2 (Homo sapiens (Human))	< 5.00
CNC(=O)[C@H]1C[C@](CC#N)(n2ccc(-c3nc(-c4ccn[nH]4)cc4ncccc34)n2)C1 [Example 27]	JAK2 (Homo sapiens (Human))	< 5.00

Attention now shifts to the item below.
So what does the record say about pIC50 for N#CC[C@]1(n2ccc(-c3nc(-c4ccnc(C(N)=O)c4)cc4ncccc34)n2)C[C@H](C#N)C1 [Example 216] ?
6.93
